molecular target: human CD3 on cells (human PBMC; Jurkat TCR/CD3 NFAT reporter cells) (human, UniProt P07766 23-207; P04234 22-171; P09693 23-182); assay: cell-based or functional assay
Sequence (P07766 23-207, chain 1 of 3): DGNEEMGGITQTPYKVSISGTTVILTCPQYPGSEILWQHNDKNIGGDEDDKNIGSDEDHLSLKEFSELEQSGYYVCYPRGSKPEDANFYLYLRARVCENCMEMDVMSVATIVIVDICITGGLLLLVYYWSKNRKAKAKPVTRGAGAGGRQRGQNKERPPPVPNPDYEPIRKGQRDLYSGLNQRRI
Sequence (P04234 22-171, chain 2 of 3): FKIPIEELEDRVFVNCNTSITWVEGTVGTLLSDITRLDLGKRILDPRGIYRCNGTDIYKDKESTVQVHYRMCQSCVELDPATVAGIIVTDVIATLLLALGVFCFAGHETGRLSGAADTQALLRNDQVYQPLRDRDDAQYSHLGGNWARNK
Sequence (P09693 23-182, chain 3 of 3): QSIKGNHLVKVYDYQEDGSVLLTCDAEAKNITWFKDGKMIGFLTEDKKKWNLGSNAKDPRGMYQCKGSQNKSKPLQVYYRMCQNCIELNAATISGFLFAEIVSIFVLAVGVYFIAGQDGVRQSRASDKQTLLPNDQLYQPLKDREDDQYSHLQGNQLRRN
Assign % of SP34 to each entry below.

Example cases with answers are listed next.
Hu155A9B1-8 (antibody, V domains shown, humanized mAb; also called 155z8) VH: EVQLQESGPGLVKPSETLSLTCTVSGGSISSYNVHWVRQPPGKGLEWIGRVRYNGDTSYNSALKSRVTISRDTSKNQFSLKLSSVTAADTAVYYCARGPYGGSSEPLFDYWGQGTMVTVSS VL: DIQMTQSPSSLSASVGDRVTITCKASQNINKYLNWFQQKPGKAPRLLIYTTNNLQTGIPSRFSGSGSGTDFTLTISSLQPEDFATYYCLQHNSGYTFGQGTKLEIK
26.2%
Hu155A9B1-10 (antibody, V domains shown, humanized mAb) VH: EVQLQESGPGLVKPSETLSLTCTVSGGSISSYNVHWVRQPPGKGLEWMGRVRYNGDTSYNSALKSRLTISRDTSKNQFSLKLSSVTAADTAVYYCTRGPYGGSSEPLFDYWGQGTMVTVSS VL: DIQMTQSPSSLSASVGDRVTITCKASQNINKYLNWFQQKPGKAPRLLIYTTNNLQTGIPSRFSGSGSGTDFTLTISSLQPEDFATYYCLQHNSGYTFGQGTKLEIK
24%

Next binder, please.
Enquiry: Please indicate % of SP34 recorded for Hu153A6B1-14 (antibody, V domains shown, humanized mAb) VH: EVQLQESGPGLVKPSETLSLTCTVSGGSISSYNIHWVRQPPGKGLEWIGRIRYNGDTSYNSALKSRVTISRDTSKNQFSLKLSSVTAADTAVYYCARGPYGGSREPLFDYWGQGTMVTVSS VL: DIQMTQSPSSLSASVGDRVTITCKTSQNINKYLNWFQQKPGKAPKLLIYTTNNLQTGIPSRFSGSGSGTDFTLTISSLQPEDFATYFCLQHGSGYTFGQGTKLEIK
Return: 74.9%

Reference for the values: patent US20240417469A1
